- System tested: full-length beta-Catenin (Uniprot ID P35222) (Homo sapiens (Human)) (UniProt P35222)
- Assay method text: fluorescence polarization competition; full-length beta-catenin, competitor 5FAM-TCF4(10-53) probe
Starred links: 1 amine or outer side, 2 acyl side, 3 side chain; linkers in the order of their positions; H or OH if unused. Positions of bridges follow the written chain, without caps; N, C: chain ends. Non-standard residues stand in square brackets, D forms with d. Primed or numbered codes have the meaning given here. *: point of attachment. PyrS2″ = (S)-3-amino-1-((pent-4-en-1-yloxy)carbonyl)pyrrolidine-3-carboxylic acid (stapling residue), C=CCCCOC(=O)N1CC[C@@](N[*:1])(C(=O)[*:2])C1; B5(4) = 2,2-bis(4-pentenyl)glycine = 2-amino-2-(pent-4-en-1-yl)hept-6-enoic acid (stitching residue), C=CCCCC(CCCC=C)(N[*:1])C(=O)[*:2]; B5(5) = 2,2-bis(4-pentenyl)glycine, 2-amino-2-(pent-4-en-1-yl)hept-6-enoic acid (stitching residue), C=CCCCC(CCCC=C)(N[*:1])C(=O)[*:2]; B5(31) = 2-amino-2-(pent-4-en-1-yl)hept-6-enoic acid (bis-pentenylglycine, stitching residue), C=CCCCC(CCCC=C)(N[*:1])C(=O)[*:2]; (bismethoxyethylamine)GlnR″ = N5,N5-bis(2-methoxyethyl)-L-glutamine, COCCN(CCOC)C(=O)CC[C@H](N[*:1])C(=O)[*:2]; Phe(3-COOH) = N[C@@H](Cc1cccc(C(=O)O)c1)C(=O)O; 2F3MeF = Cc1cccc(C[C@H](N[*:1])C(=O)[*:2])c1F; Phe(2-Cl) = N[C@@H](Cc1ccccc1Cl)C(=O)O; Bta = N[C@@H](Cc1csc2ccccc12)C(=O)O; αAllylPro = C=CC[C@@]1(C(=O)O)CCCN1; tBuAla = CC(C)(C)C[C@H](N)C(=O)O; 2Thi = N[C@@H](Cc1cccs1)C(=O)O; 3Thi = N[C@@H](Cc1ccsc1)C(=O)O; Cha = N[C@@H](CC1CCCCC1)C(=O)O; S8 = C=CCCCCCC[C@](C)(N)C(=O)O; hSer = N[C@@H](CCO)C(=O)O; Propioloyl = C#CC(=O)*
Kindly apply the following: 1.0 if IC50 is less than 70 nM, 0.0 in every other case.

Exercise: Dear reviewer, please state whether Ac-[αAllylPro]DA[B5(4)]DEAA[2Thi]N[S8]F[Bta]Q-NH2 (staple 1-4, 4-11; also: staple isomer composition, later-eluting HPLC peak) [I-447] has IC50 strictly beneath 70 nM.
Solution: 0.0

Exercise: Dear reviewer, please state whether Ac-[αAllylPro]D[tBuAla][B5(4)]D[Phe(3-COOH)][(bismethoxyethylamine)GlnR″]AFL[PyrS2″][2F3MeF][Bta]A-NH2 (staple 1-4, 4-11) [I-2322] has IC50 strictly beneath 70 nM.
Solution: 1.0

Exercise: Dear reviewer, please state whether Propioloyl-[αAllylPro]D[tBuAla][B5(5)]D[Phe(3-COOH)]AAFL[PyrS2″][Phe(2-Cl)][Bta]A-NH2 (staple 1-4, 4-11) [I-2403] has IC50 strictly beneath 70 nM.
Solution: 1.0

Exercise: Dear reviewer, please state whether Ac-[αAllylPro]E[tBuAla][B5(31)]NTAAFN[PyrS2″][3Thi][Bta]Q-NH2 (staple 1-4, 4-11; also: staple isomer, earlier eluting HPLC peak) [I-2331] has IC50 strictly beneath 70 nM.
Solution: 0.0

Exercise: Dear reviewer, please state whether Ac-[αAllylPro]D[tBuAla][B5(4)]DTAAFT[PyrS2″][3Thi][Bta]S-NH2 (staple 1-4, 4-11) [I-1170] has IC50 strictly beneath 70 nM.
Solution: 1.0

Exercise: Dear reviewer, please state whether Ac-[αAllylPro]N[Cha][B5(5)]DQ[hSer]AFL[PyrS2″]F[Bta]K-NH2 (staple 1-4, 4-11) [I-2419] has IC50 strictly beneath 70 nM.
Solution: 0.0
